# testedTarget: T1, human LAG3 expressed on cells (human, UniProt P18627 23-525)
# T1 construct: whole, on cells
# T1 sequence (looked up): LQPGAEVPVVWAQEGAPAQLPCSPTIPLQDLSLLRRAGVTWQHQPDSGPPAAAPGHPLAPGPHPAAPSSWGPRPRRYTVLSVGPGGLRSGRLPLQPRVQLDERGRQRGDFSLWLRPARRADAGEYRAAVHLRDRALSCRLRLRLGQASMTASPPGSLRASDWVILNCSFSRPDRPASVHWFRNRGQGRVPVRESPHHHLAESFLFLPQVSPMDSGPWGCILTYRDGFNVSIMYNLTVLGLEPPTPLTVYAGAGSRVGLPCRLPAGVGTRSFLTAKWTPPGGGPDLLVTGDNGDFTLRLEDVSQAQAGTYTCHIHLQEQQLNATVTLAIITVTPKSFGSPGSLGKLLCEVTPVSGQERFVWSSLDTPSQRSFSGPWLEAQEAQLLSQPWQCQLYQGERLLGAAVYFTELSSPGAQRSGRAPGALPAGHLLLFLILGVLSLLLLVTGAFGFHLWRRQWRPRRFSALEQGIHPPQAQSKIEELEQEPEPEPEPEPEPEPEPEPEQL
# assayMethodText: cell ELISA, 293T-hLAG3 cells
measure: OD450 at 0.3703704 ug/ml
Enter the number alone.

{"binder": "sdAb No. 27-H1 (VHH, Modified sdAb No. 27 (CDR2 DG to DA); not shown: Fc part implied by anti-human IgG1 Fc detection) VHH: QVQLVESGGGLVQPGGSLRLSCAASGFTLDYYAIGWFRQAPGKEREGVSCIRSSDASTYYADSVKGRFTISSDNTKNTVYLQMNSLKPEDTAVYYCATDRYSDCRGPYENWGQGTQVTVSS", "result": 1.08}
{"binder": "sdAb No. 17-H1 (VHH, Modified sdAb No. 17 (CDR1 DG to DA); not shown: Fc part implied by anti-human IgG1 Fc detection) VHH: QLQLVESGGGLVQPGGSLRLSCAASGLTLDAYAIGWFRQAPGKEREGLACISGSDGSTHYLDSVKGRFTISRDNGKNTMALQMNSLQFGDTAIYYCAARRGSCSGSWTYWGQGTQVTVSS", "result": 1.27}

Consider the binder sdAb No. 17-H4 (VHH, Modified sdAb No. 17 (CDR2 DG to EG); not shown: Fc part implied by anti-human IgG1 Fc detection) VHH: QLQLVESGGGLVQPGGSLRLSCAASGLTLDGYAIGWFRQAPGKEREGLACISGSEGSTHYLDSVKGRFTISRDNGKNTMALQMNSLQFGDTAIYYCAARRGSCSGSWTYWGQGTQVTVSS and give its measured OD450 at 0.3703704 ug/ml.
0.962

How about sdAb No. 27 (VHH, Fc of the tested form not described; also called sdAb 27; not shown: Fc part implied by anti-human Fc capture and anti-human IgG Fc detection) VHH: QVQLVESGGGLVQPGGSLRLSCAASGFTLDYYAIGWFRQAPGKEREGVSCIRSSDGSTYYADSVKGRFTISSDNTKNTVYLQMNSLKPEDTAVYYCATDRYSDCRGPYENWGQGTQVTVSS ?
1.13

For sdAb No. 27-H2 (VHH, Modified sdAb No. 27 (CDR2 DG to EG); not shown: Fc part implied by anti-human IgG1 Fc detection) VHH: QVQLVESGGGLVQPGGSLRLSCAASGFTLDYYAIGWFRQAPGKEREGVSCIRSSEGSTYYADSVKGRFTISSDNTKNTVYLQMNSLKPEDTAVYYCATDRYSDCRGPYENWGQGTQVTVSS then?
1.07

Quick one: sdAb No. 17 (VHH, Fc of the tested form not described; also called sdAb 17; not shown: Fc part implied by anti-human Fc capture and anti-human IgG1 Fc detection) VHH: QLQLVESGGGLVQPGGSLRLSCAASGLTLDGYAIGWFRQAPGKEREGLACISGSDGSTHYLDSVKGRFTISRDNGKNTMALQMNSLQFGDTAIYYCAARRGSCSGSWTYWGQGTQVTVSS
1.3

For sdAb No. 17-H3 (VHH, Modified sdAb No. 17 (CDR2 DG to DA); not shown: Fc part implied by anti-human IgG1 Fc detection) VHH: QLQLVESGGGLVQPGGSLRLSCAASGLTLDGYAIGWFRQAPGKEREGLACISGSDASTHYLDSVKGRFTISRDNGKNTMALQMNSLQFGDTAIYYCAARRGSCSGSWTYWGQGTQVTVSS then?
1.11

Then what about the binder sdAb No. 17-H2 (VHH, Modified sdAb No. 17 (CDR1 DG to EG); not shown: Fc part implied by anti-human IgG1 Fc detection) VHH: QLQLVESGGGLVQPGGSLRLSCAASGLTLEGYAIGWFRQAPGKEREGLACISGSDGSTHYLDSVKGRFTISRDNGKNTMALQMNSLQFGDTAIYYCAARRGSCSGSWTYWGQGTQVTVSS ?
1.25
